- Test system: 885724-159-R-J1-PDC KRAS PDC multicell spheroid viability;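 note: spheroids exposed to agents for 7 days before readout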
- protocol: Anticancer human tumor 885724-159-R-J1-PDC patient-derived pancreatic adenocarcinoma cell line growth inhibition [KRAS2]
- cond: second compound 0.1 µM; first compound 0.00316 µM; active compounds read low
Label key: condition met means viability, T/C under 90%; condition not met means viability, T/C of 90% or more.

Worked cases, answers included:
>>> classification("CC(=O)Nc1cccc(-n2c(=O)n(C3CC3)c(=O)c3c(Nc4ccc(I)cc4F)n(C)c(=O)c(C)c32)c1 + CNCc1ccccc1-c1csc(C(C)Nc2nc(C)nc3cc(OC)c(OC)cc23)c1")
"condition met"
>>> classification("CN(C)C/C=C/C(=O)Nc1cc2c(Nc3ccc(F)c(Cl)c3)ncnc2cc1O[C@H]1CCOC1 + CNCc1ccccc1-c1csc(C(C)Nc2nc(C)nc3cc(OC)c(OC)cc23)c1")
"condition not met"
>>> classification("CCN1CCN(Cc2ccc(Nc3ncc(F)c(-c4cc(F)c5nc(C)n(C(C)C)c5c4)n3)nc2)CC1 + C=CC(=O)N1CCN(c2nc(OCC3CCCN3C)nc3c2CCN(c2cccc4cccc(C)c24)C3)CC1CC#N")
"condition not met"

Continue with the compound presented below.
Task item: API: query returns whether the compound falls strictly under 90% in viability, T/C. Query: CC(C)n1nc(-c2ccc3oc(N)nc3c2)c2c(N)ncnc21 + C=CC(=O)N1CCN(c2nc(=O)n(-c3c(C)ccnc3C(C)C)c3nc(-c4c(O)cccc4F)c(F)cc23)C(C)C1
Reply: condition met
